Tested on: IKZF1, ASS1 and SALL4 recruitment to CRBN
Test: Recruitment assessment: recruitment of any tested substrate from among IKZF1, ASS1 and SALL4
Format: cell-based
Details: any tested substrate at any tested compound concentration
MEASURE NAME: Recruitment Assessment

INSERT INTO measurements (compound, target_entity, result) VALUES
  ('Cc1ccc2c(c1)C(=O)N(c1c(C(C)C)cccc1C(C)C)C2=O [5HPP-33, reference compound]', 'IKZF1, ASS1 and SALL4 recruitment to CRBN', 'FALSE'),
  ('O=C1CCC(N2C(=O)C3CCCCC3C2=O)C(=O)N1 (stereo not drawn) [C24191]', 'IKZF1, ASS1 and SALL4 recruitment to CRBN', 'FALSE'),
  ('Cc1cccc2c1C(=O)N(C1CCC(=O)NC1=O)S2(=O)=O (stereo not drawn) [C73349]', 'IKZF1, ASS1 and SALL4 recruitment to CRBN', 'FALSE'),
  ('N#Cc1ccc2c(c1)CN(C1CCC(=O)NC1=O)C2=O (stereo not drawn) [C48005]', 'IKZF1, ASS1 and SALL4 recruitment to CRBN', 'TRUE'),
  ('O=C1CCC(N2Cc3ccccc3C2=O)C(=O)N1 (stereo not drawn)', 'IKZF1, ASS1 and SALL4 recruitment to CRBN', 'TRUE'),
  ('COc1ccc(C2c3ccccc3C(=O)N2C2CCC(=O)NC2=O)cc1 (stereo not drawn) [C11892]', 'IKZF1, ASS1 and SALL4 recruitment to CRBN', 'FALSE'),
  ('CN(C)CC(=O)Nc1cccc2c1CN(C1CCC(=O)NC1=O)C2=O (stereo not drawn) [C22586]', 'IKZF1, ASS1 and SALL4 recruitment to CRBN', 'TRUE'),
  ('CN(CC1CC1)C(=O)CNc1ccc2c(c1)C(=O)N(C1CCC(=O)NC1=O)C2 (stereo not drawn) [C95338]', 'IKZF1, ASS1 and SALL4 recruitment to CRBN', 'FALSE'),
  ('O=C1CCC(N2C(=O)CC(NC(=O)OCc3ccccc3)C2=O)C(=O)N1 (stereo not drawn) [C64344]', 'IKZF1, ASS1 and SALL4 recruitment to CRBN', 'FALSE'),
  ('O=C1CCC(N2C(=O)c3ccccc3C2NC(=O)c2ccccc2)C(=O)N1 (stereo not drawn) [C46003]', 'IKZF1, ASS1 and SALL4 recruitment to CRBN', 'FALSE'),
  ('CC1CCCN(C(=O)CNc2ccc3c(c2)C(=O)N(C2CCC(=O)NC2=O)C3)CC1 (stereo not drawn) [C12697]', 'IKZF1, ASS1 and SALL4 recruitment to CRBN', 'FALSE'),
  ('O=C1N=c2ccc(NC(=O)NCc3ccccc3)cc2=N1 [1-benzyl-3-(2-oxobenzimidazol-5-yl)urea]', 'IKZF1, ASS1 and SALL4 recruitment to CRBN', 'FALSE'),
  ('O=C1CCC(N2Cc3ccc(NCC(=O)N4CC5CC4CO5)cc3C2=O)C(=O)N1 (stereo not drawn) [C12589]', 'IKZF1, ASS1 and SALL4 recruitment to CRBN', 'FALSE'),
  ('O=C1CCC(N2Cn3c(cccc3=O)C2=O)C(=O)N1 (stereo not drawn) [C60651]', 'IKZF1, ASS1 and SALL4 recruitment to CRBN', 'FALSE'),
  ('CC(=O)NCCNc1ccc2c(c1)CN(C1CCC(=O)NC1=O)C2=O (stereo not drawn) [C35745]', 'IKZF1, ASS1 and SALL4 recruitment to CRBN', 'TRUE'),
  ('O=C1CCC(N2Cc3ccc(Nc4ncc5c(n4)COC5)cc3C2=O)C(=O)N1 (stereo not drawn) [C80391]', 'IKZF1, ASS1 and SALL4 recruitment to CRBN', 'TRUE'),
  ('COCC(=O)Nc1cccc2c1CN(C1CCC(=O)NC1=O)C2=O (stereo not drawn) [C22564]', 'IKZF1, ASS1 and SALL4 recruitment to CRBN', 'TRUE'),
  ('O=C1CCC(N2Cc3ccc(NCC(=O)Nc4ccccc4)cc3C2=O)C(=O)N1 (stereo not drawn) [C84965]', 'IKZF1, ASS1 and SALL4 recruitment to CRBN', 'TRUE'),
  ('O=C1CCC(N2C(=O)C3CC=CCC3C2=O)C(=O)N1 (stereo not drawn) [C51647]', 'IKZF1, ASS1 and SALL4 recruitment to CRBN', 'FALSE'),
  ('CN(C)c1ccc2c(c1)CN(C1CCC(=O)NC1=O)C2=O (stereo not drawn) [C98103]', 'IKZF1, ASS1 and SALL4 recruitment to CRBN', 'TRUE'),
  ('O=C1CCC(N2Cc3cc(NCC(=O)Nc4ccccc4)ccc3C2=O)C(=O)N1 (stereo not drawn) [C35797]', 'IKZF1, ASS1 and SALL4 recruitment to CRBN', 'TRUE'),
  ('COc1cnccc1C(=O)Nc1ccc2c(c1)=NC(=O)N=2 [C36124]', 'IKZF1, ASS1 and SALL4 recruitment to CRBN', 'FALSE'),
  ('O=C1CC[C@H](N2Cc3c(OCc4ccc(CN5CCOCC5)cc4)cccc3C2=O)C(=O)N1 [CC-220, reference compound]', 'IKZF1, ASS1 and SALL4 recruitment to CRBN', 'TRUE'),
  ('O=C1CCC(N2Cc3ccc(O)cc3C2=O)C(=O)N1 (stereo not drawn) [C28928]', 'IKZF1, ASS1 and SALL4 recruitment to CRBN', 'TRUE'),
  ('O=C1CCC(N2Cc3cc4c(cc3C2=O)OCO4)C(=O)N1 (stereo not drawn) [C68126]', 'IKZF1, ASS1 and SALL4 recruitment to CRBN', 'TRUE'),
  ('COC1c2ccccc2C(=O)N1C1CCC(=O)NC1=O (stereo not drawn) [C56572]', 'IKZF1, ASS1 and SALL4 recruitment to CRBN', 'FALSE'),
  ('N#Cc1cccc2c1C(=O)N(C1CCC(=O)NC1=O)C2 (stereo not drawn) [C48009]', 'IKZF1, ASS1 and SALL4 recruitment to CRBN', 'FALSE');

Provenance of the data: patent US20230111853A1
